- Tested on: CD8+ T cells
- assay remarks: In vitro immunogenicity of HLA-A*02 class I peptides: in vitro T-cell priming with aAPCs loaded with peptide/MHC complexes and anti-CD28 antibody, pMHC multimer readout
- Format: cell-based, human
- experimental setup: HLA-A*02 peptides; healthy donors; specific multimer+ CD8+ T-cell line after in vitro stimulation
Where no end group is shown, it is not given here.
metric: Donors

{"columns": ["substance", "readout value"],
 "data": [
  ["ILIDWLVQV (listed as Homo sapiens) [CCNB1-002]", "+++ (50%-70% = +++)"],
  ["TMMSRPPVL (listed as Homo sapiens) [WLS-002]", "+++ (50%-70% = +++)"],
  ["NLDTLMTYV (listed as Homo sapiens) [NLGN4X-001]", "++++ (>70% = ++++)"],
  ["SLAERLFFQV (listed as Homo sapiens) [NAT8L-001]", "++++ (>70% = ++++)"],
  ["ALTTLMHQL (listed as Homo sapiens) [PTP-001]", "++ (20%-49 % = ++)"],
  ["VLCGPPPAV (listed as Homo sapiens) [NC AN-001]", "++++ (>70% = ++++)"],
  ["GLWHHQTEV (listed as Homo sapiens) [NRC AM-001]", "++++ (>70% = ++++)"],
  ["SLADFMQEV (listed as Homo sapiens) [CNOT1-002]", "++ (20%-49 % = ++)"],
  ["GLMEKIKEL (listed as Homo sapiens) [CPT1C-001]", "++ (20%-49 % = ++)"],
  ["LLWGNAIFL (listed as Homo sapiens) [KIF1A-001]", "+++ (50%-70% = +++)"],
  ["KLVEFDFLGA (listed as Homo sapiens) [TACC3-001]", "++ (20%-49 % = ++)"],
  ["KLGDFGLATVV (listed as Homo sapiens) [DCA-001]", "++ (20%-49 % = ++)"],
  ["RVAS*PTSGV (RVASPTSGV; not fully specified (residue 4); printed as RVAS*PTSGV; listed as Homo sapiens) [IRS-001]", "+++ (50%-70% = +++)"]
]}
